# assayed_target: T1, human CD123 on CHO cells (Homo sapiens, UniProt P26951)
# T1 construct: expressed in transfected cells; host or cells: CHO cells
# T1 sequence (P26951 19-378): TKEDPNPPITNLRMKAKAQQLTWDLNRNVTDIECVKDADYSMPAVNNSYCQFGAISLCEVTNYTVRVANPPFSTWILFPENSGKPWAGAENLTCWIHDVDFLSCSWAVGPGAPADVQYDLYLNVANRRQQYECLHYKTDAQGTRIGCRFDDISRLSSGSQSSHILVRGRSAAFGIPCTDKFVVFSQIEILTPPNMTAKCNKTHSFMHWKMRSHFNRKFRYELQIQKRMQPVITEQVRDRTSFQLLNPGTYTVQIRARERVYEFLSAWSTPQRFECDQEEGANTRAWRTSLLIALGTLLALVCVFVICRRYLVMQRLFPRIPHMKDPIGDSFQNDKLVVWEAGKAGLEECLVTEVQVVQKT
# protocol_description: Flow cytometry binding of IgG antibodies to CD123 expressing CHO cells
# condition_description: 4-parameter logistic model
Kindly state HillSlope for each of the entries shown.
Enter a number only.

Looking up h32716-1-1 IgG: humanized 32716 anti-CD123 IgG, VH SEQ ID NO: 76, VL SEQ ID NO: 79 (antibody, V domains shown) VH: QVQLVQSGAEVKKPGSSVKVSCKASGYIFTNYGMNWVRQAPGQGLEWMGWINTYTGESTYSADFKGRVTITADESTSTAYMELSSLRSEDTAVYYCARSGGYDPMDYWGQGTLVTVSS VL: DIVMTQSPDSLAVSLGERATINCRASESVDNYGNTFMHWYQQKPGQPPKLLIYRASNLESGVPDRFSGSGSGTDFTLTISSLQAEDVAVYYCQQSNEDPPTFGQGTRLEIK , I see its HillSlope listed as 2.0

Notebook: h32716-6-2 IgG: humanized 32716 anti-CD123 IgG, VH SEQ ID NO: 82, VL SEQ ID NO: 83 (antibody, V domains shown) VH: QVQLVQSGPELKKPGASVKVSCKASGYIFTNYGMNWVKQAPGQGFKWMGWINTYTGESTYSADFKGRFVFSLDTSVSTAYLQISSLKAEDTAVYYCARSGGYDPMDYWGQGTLVTVSS VL: DIQMTQSPSSLSASVGDRVTITCRASESVDNYGNTFMHWYQQKPGKAPKLLIYRASNLESGVPSRFSGSGSGTDFTFTISSLQPEDIATYYCQQSNEDPPTFGQGTKVEIK , HillSlope read as 1.9

// field: HillSlope; key: h32716-5-2 IgG: humanized 32716 anti-CD123 IgG, VH SEQ ID NO: 81, VL SEQ ID NO: 83 (antibody, V domains shown) VH: QVQLVQSGPELKKPGASVKVSCKASGYIFTNYGMNWVKQAPGQGLEWMGWINTYTGESTYSADFKGRFVFSLDTSVSTAYLQISSLKAEDTAVYYCARSGGYDPMDYWGQGTLVTVSS VL: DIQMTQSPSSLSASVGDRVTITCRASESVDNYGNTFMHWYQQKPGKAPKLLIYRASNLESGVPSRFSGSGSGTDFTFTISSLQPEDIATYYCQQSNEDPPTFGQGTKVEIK ; value = 2.2

The molecule identified as h32716-3-1 IgG: humanized 32716 anti-CD123 IgG, VH SEQ ID NO: 78, VL SEQ ID NO: 79 (antibody, V domains shown) VH: QVQLVQSGAEVKKPGSSVKVSCKASGYIFTNYGMNWVKQAPGQGFKWMGWINTYTGESTYSADFKGRFTFTLDESTSTAYMELSSLRSEDTAVYYCARSGGYDPMDYWGQGTLVTVSS VL: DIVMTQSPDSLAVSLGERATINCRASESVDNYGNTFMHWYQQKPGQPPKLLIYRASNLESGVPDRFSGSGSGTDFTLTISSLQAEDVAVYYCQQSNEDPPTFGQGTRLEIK registered its HillSlope at 1.9

All figures here come from patent US20240076392A1.
